This section presents binders with their documented % Specific Cell Lysis at 10 ug/mL values.
Target: T1, human IL-12Rβ2 expressed on cells (human, UniProt Q99665 24-862)
T1 sequence: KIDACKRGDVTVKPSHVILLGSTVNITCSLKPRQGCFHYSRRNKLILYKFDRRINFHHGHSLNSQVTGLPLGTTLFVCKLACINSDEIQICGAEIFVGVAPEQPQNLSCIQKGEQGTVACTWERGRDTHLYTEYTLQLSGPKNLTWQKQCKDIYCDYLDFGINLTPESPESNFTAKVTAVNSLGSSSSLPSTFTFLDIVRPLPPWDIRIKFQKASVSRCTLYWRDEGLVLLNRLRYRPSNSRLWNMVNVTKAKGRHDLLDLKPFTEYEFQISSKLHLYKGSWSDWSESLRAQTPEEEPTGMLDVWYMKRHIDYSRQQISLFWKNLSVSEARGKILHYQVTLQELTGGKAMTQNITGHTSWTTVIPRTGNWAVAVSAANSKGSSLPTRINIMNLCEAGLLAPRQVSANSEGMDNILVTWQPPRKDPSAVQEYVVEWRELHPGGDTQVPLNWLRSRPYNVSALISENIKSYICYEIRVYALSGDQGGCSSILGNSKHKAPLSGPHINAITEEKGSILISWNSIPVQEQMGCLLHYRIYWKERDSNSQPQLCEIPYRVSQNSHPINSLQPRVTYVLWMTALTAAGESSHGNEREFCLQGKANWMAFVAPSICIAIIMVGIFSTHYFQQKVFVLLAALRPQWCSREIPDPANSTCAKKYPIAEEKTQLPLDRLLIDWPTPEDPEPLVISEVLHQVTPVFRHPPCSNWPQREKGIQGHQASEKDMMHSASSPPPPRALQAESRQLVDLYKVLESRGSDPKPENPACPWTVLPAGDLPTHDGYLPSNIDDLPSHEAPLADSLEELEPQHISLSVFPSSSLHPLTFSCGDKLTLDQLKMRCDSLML
Test: cell-based or functional assay
Answer format: numeric, % implied, no suffix.

As a guide, the following entries are already answered.
binder="20421-FcDE (Fc fusion) VHH-Fc chain: QVQLQESGGGLVQPGGSLRLSCAASGFTFSTYAMSWVRQAPGKGLEWVSAVNSGGLSTDYADSVEGRFTISRDDAKNMLFLQMNRLKPEDTARYYCAKYEDCSDYVCDRAGYWGQGTQVTVSSAPELLGGPDVFLFPPKPKDTLMISRTPEVTCVVVDVSHEDPEVKFNWYVDGVEVHNAKTKPREEQYNSTYRVVSVLTVLHQDWLNGKEYKCKVSNKALPAPEEKTISKAKGQPREPQVYTLPPSRDELTKNQVSLTCLVKGFYPSDIAVEWESNGQPENNYKTTPPVLDSDGSFFLYSKLTVDKSRWQQGNVFSCSVMHEALHNHYTQKSLSLSPGK" endpointresult=69
binder="20422-FcDE (Fc fusion) VHH-Fc chain: QVQLQESGGGLVQPGGSLRLSCTASGSIVSIYNMDWYRQAPGNEREWVASITSSGDPYYDGSAKGRFTISRDNAKMTVYLQMNSLEPEDTAVYFCKVPTEKGNYWGQGTQVTVSSAPELLGGPDVFLFPPKPKDTLMISRTPEVTCVVVDVSHEDPEVKFNWYVDGVEVHNAKTKPREEQYNSTYRVVSVLTVLHQDWLNGKEYKCKVSNKALPAPEEKTISKAKGQPREPQVYTLPPSRDELTKNQVSLTCLVKGFYPSDIAVEWESNGQPENNYKTTPPVLDSDGSFFLYSKLTVDKSRWQQGNVFSCSVMHEALHNHYTQKSLSLSPGK" endpointresult=67.3
binder="anti-IL-12Rβ2-VHH-FcDE clone 21062 (Fc fusion) QVQLQESGGGLVQPGGSLRLSCAASGISSSRLHVGWFRQSPGKEREFVAAISLSGGTQAYTDSVKGRFTISGDNVKNTAYLQMNSLRPEDTAVYYCAARERFIWTWSDLTYDYWGQGTQVTVSSAPELLGGPDVFLFPPKPKDTLMISRTPEVTCVVVDVSHEDPEVKFNWYVDGVEVHNAKTKPREEQYNSTYRVVSVLTVLHQDWLNGKEYKCKVSNKALPAPEEKTISKAKGQPREPQVYTLPPSRDELTKNQVSLTCLVKGFYPSDIAVEWESNGQPENNYKTTPPVLDSDGSFFLYSKLTVDKSRWQQGNVFSCSVMHEALHNHYTQKSLSLSPGK" endpointresult=69.5

Which % Specific Cell Lysis at 10 ug/mL reading was recorded for the binder anti-IL-12Rβ2-VHH-FcDE clone 20407 (Fc fusion) QVQLQESGGGLVQPGGSLRLTCVASGFPFSTHAMSWVRQPPGKGREWISAINSGGDSTDYADSVMGRFTISRDNAKNTVYLQMNSLKSEDTAAYYCAKYEDCSDYDCSSRASWGQGTQVTVSSAPELLGGPDVFLFPPKPKDTLMISRTPEVTCVVVDVSHEDPEVKFNWYVDGVEVHNAKTKPREEQYNSTYRVVSVLTVLHQDWLNGKEYKCKVSNKALPAPEEKTISKAKGQPREPQVYTLPPSRDELTKNQVSLTCLVKGFYPSDIAVEWESNGQPENNYKTTPPVLDSDGSFFLYSKLTVDKSRWQQGNVFSCSVMHEALHNHYTQKSLSLSPGK ?
66.2
